src = patent US20210388087A1

Molecular target: T1, Human CD3eg linker (human)
T1 construct: Single chain: epsilon and gamma subunits of human CD3 joined by a 29-mer linker, Flag-tag at the C-terminus; also called recombinant human CD3
T1 chain: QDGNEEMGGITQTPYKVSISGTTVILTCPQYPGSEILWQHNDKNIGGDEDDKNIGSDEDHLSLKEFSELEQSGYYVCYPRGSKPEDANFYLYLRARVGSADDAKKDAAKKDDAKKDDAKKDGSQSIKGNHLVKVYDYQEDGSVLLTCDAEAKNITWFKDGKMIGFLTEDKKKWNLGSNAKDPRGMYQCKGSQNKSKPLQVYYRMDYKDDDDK
Experiment: Biacore SPR, vs template H183/L072
TEST READOUT: fold change of affinity (fold)
Give the quantity in fold, number only.

Recorded results for 3 binders are shown here.
H183/L072 VH A60P (antibody, name in Kabat numbering, V domains shown) VH: QVQLVESGGGLVQPGRSLRLSCAASGFTFSNAWMHWVRQAPGKGLEWVAQIKDKGNAYAAYYPPSVKGRFTISRDDSKNSIYLQMNSLKTEDTAVYYCHYVHYASASTVLPAFGVDAWGQGTTVTVSS VL: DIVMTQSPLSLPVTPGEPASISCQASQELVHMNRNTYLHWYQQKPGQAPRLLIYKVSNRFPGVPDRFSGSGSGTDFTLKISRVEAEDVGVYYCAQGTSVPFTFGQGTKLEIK = 0.5
H183/L072 VH W33F (antibody, name in Kabat numbering, V domains shown) VH: QVQLVESGGGLVQPGRSLRLSCAASGFTFSNAFMHWVRQAPGKGLEWVAQIKDKGNAYAAYYAPSVKGRFTISRDDSKNSIYLQMNSLKTEDTAVYYCHYVHYASASTVLPAFGVDAWGQGTTVTVSS VL: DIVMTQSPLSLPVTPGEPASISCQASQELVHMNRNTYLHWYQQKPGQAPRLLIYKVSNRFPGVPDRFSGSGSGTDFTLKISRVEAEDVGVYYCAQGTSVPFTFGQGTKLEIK = 0.4
H183/L072 VH P61M (antibody, name in Kabat numbering, V domains shown) VH: QVQLVESGGGLVQPGRSLRLSCAASGFTFSNAWMHWVRQAPGKGLEWVAQIKDKGNAYAAYYAMSVKGRFTISRDDSKNSIYLQMNSLKTEDTAVYYCHYVHYASASTVLPAFGVDAWGQGTTVTVSS VL: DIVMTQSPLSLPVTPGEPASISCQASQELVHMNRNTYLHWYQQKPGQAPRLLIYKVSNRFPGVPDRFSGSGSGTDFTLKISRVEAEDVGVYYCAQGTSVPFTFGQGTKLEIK = 1.8

fold change of affinity recorded for this binder, H183/L072 VH K52bI (antibody, name in Kabat numbering, V domains shown) VH: QVQLVESGGGLVQPGRSLRLSCAASGFTFSNAWMHWVRQAPGKGLEWVAQIKDIGNAYAAYYAPSVKGRFTISRDDSKNSIYLQMNSLKTEDTAVYYCHYVHYASASTVLPAFGVDAWGQGTTVTVSS VL: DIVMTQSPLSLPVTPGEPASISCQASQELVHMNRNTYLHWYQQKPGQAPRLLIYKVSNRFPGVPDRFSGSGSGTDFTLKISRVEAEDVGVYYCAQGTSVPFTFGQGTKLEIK , is 0.8

fold change of affinity recorded for this binder, H183/L072 VH A60S (antibody, name in Kabat numbering, V domains shown) VH: QVQLVESGGGLVQPGRSLRLSCAASGFTFSNAWMHWVRQAPGKGLEWVAQIKDKGNAYAAYYSPSVKGRFTISRDDSKNSIYLQMNSLKTEDTAVYYCHYVHYASASTVLPAFGVDAWGQGTTVTVSS VL: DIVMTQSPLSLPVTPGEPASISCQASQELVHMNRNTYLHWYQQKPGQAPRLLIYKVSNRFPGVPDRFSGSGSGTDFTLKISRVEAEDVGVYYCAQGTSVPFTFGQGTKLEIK , is 1.3
